test.system: T1, ARHGAP21, Q5T5U3
T1 sequence (Q5T5U3 45-169, limits assumed, looked up): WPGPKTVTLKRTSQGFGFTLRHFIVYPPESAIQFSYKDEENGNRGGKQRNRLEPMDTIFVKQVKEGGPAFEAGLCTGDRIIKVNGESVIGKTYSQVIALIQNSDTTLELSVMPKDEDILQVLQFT
procedure.summary: holdup assay
Parameters: key: below the threshold = too weak to quantify, mostly under pKd 3.1 to 4
measurement.parameters: plain residues with an end cap or a label only (N-terminal biotin on a linker: ado-ado)
quantity.name: pKd

**Query** Consider the binder NHSSSPETTA [TRMT13, Q9NUP7] and give its measured pKd.
**Result** below the threshold

**Query** Queued: PAPSSGKDYV [CLDN1, O95832]
**Result** below the threshold

**Query** Can you handle QSLNRMEYIV [JAG1, P78504] next?
**Result** below the threshold

**Query** Same lookup for DTTVPESEDL [MYOZ2, Q9NPC6] , please.
**Result** below the threshold

**Query** Okay, and SNAGNTATKA [NOSTRIN, Q8IVI9] ?
**Result** below the threshold

**Query** For DDEDRLVIEI [ZNF831, Q5JPB2] then?
**Result** below the threshold

**Query** Likewise for TASPAKETSF [SLC2A7, Q6PXP3] ?
**Result** below the threshold

**Query** And for SAKVRTVTSV [RASL11B, Q9BPW5] ?
**Result** below the threshold

**Query** Thanks! And TLPRKRMSSI [GPRC6A, Q5T6X5] ?
**Result** below the threshold

**Query** Same again, this time with SKENVQETQI [LRRC4B, Q9NT99]
**Result** below the threshold

More entries:
**Query** Consider the binder QKNRKAQEDL [CES3, Q6UWW8] and give its measured pKd.
**Result** below the threshold

**Query** Request: ETQVTAETVI [TMEM225B, P0DP42]
**Result** below the threshold

**Query** Record: SKSNFGSEPL [KIF17, Q9P2E2]
**Result** 3.56

**Query** Again, but for RRRESYSTTV [EVI5, O60447]
**Result** 3.82

**Query** Cool, now LGRSTPQSEV [DGKH, Q86XP1]
**Result** 4.1

**Query** Now the same for IKAIVDLTGL [TRAF2, Q12933]
**Result** 3.74

**Query** Further, for LRSPRTPSEV [OR10G3, Q8NGC4] ?
**Result** 3.97

**Query** Param item: RRISSLESEV [GRIN2C, Q14957]
**Result** below the threshold
